Value source: patent US20210330611A1

Tested on: primary rat microglia
COND: rat
PROPERTY MEASURED: Fibrin % cell toxicity (%)
Numbers only, in %.

[
  {
    "MOLECULE": "O=P(O)(O)C(O)(Cn1ccnc1)P(=O)(O)O [Zoledronic acid, reference compound]",
    "STUDY TARGET": "primary rat microglia",
    "MEASUREMENT": 2
  },
  {
    "MOLECULE": "COc1ccc2cc3[n+](cc2c1OC)CCc1cc2c(cc1-3)OCO2",
    "STUDY TARGET": "primary rat microglia",
    "MEASUREMENT": 0
  },
  {
    "MOLECULE": "CCN(CC)CCNC(=O)c1c(C)[nH]c(/C=C2\\C(=O)Nc3ccc(F)cc32)c1C",
    "STUDY TARGET": "primary rat microglia",
    "MEASUREMENT": 75
  },
  {
    "MOLECULE": "CCn1cc(C(=O)O)c(=O)c2cc(F)c(N3CCNCC3)cc21",
    "STUDY TARGET": "primary rat microglia",
    "MEASUREMENT": 1
  },
  {
    "MOLECULE": "C[N+](C)(C)CCO",
    "STUDY TARGET": "primary rat microglia",
    "MEASUREMENT": 0
  }
]

Here is another molecule to look at.
Qu. Checklist item: Fibrin % cell toxicity tested on primary rat microglia, entry CC[C@H]1[C@@H]2C[C@H]3[C@@H]4N(C)c5ccccc5[C@]45C[C@@H]([C@H]2[C@H]5O)N3[C@@H]1O , value?
Ans. 1

* * *

Test system: primary rat microglia
MEASUREMENT DESCRIPTION: Cell toxicity (dead cells, size <150 μm2) in coated fibrin (cFib) assay;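 note: share of dead cells sized under 150 µm2 at 10 µM in fibrin-stimulated microglia HTS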
COND: primary microglia HTS, fibrin stimulation, cell size <150 μm2 as marker of toxicity
Where a name gives a salt, the structure may show the parent alone.
Answer each item with its documented Fibrin % cell toxicity.
Answers are plain numbers, in %.

Worked cases, Fibrin % cell toxicity given:
[
  {
    "COMPOUND": "CN1CCN(c2c(F)cc3c(=O)c(C(=O)O)cn4c3c2SCC4)CC1 [Rufloxacin Hydrochloride]",
    "STUDY TARGET": "primary rat microglia",
    "UNIT ABBREVIATION": "%",
    "MEASUREMENT": 1
  },
  {
    "COMPOUND": "O=C1OC(c2ccc(O)cc2)(c2ccc(O)cc2)c2ccccc21",
    "STUDY TARGET": "primary rat microglia",
    "UNIT ABBREVIATION": "%",
    "MEASUREMENT": 1
  },
  {
    "COMPOUND": "CCOC(=O)[C@H](CCc1ccccc1)N[C@@H](C)C(=O)N1[C@H](C(=O)O)C[C@@H]2CCC[C@@H]21",
    "STUDY TARGET": "primary rat microglia",
    "UNIT ABBREVIATION": "%",
    "MEASUREMENT": 0
  }
]

State recorded Fibrin % cell toxicity for all listed compounds.
1. CC(CN1c2ccccc2Sc2ccccc21)N(C)C (stereo not drawn)
2. CC(=O)SCC(Cc1ccccc1)C(=O)NCC(=O)OCc1ccccc1 (stereo not drawn)
3. NCc1cccnc1

Ans.
1. 0
2. 1
3. 1

* * *

Assignment: determine reported Fibrin % cell toxicity for the given molecules.
System: primary rat microglia
COND: rat
Where a name gives a salt, the structure may show the parent alone.
Could you kindly put the unit after your number?

Below, each entry is followed by its recorded Fibrin % cell toxicity result.
[
  {
    "MOLECULE": "CC(C)(O)c1ccccc1CC[C@@H](SCC1(CC(=O)O)CC1)c1cccc(/C=C/c2ccc3ccc(Cl)cc3n2)c1 [Montelukast]",
    "Fibrin % cell toxicity": "1%"
  },
  {
    "MOLECULE": "Nc1nc(=O)n([C@@H]2CS[C@H](CO)O2)cc1F [Emtricitabine]",
    "Fibrin % cell toxicity": "1%"
  },
  {
    "MOLECULE": "Nc1ccc(S(=O)(=O)Nc2ccccn2)cc1 [Sulfapyridine]",
    "Fibrin % cell toxicity": "1%"
  },
  {
    "MOLECULE": "COC(=O)C1=C(C)NC(C)=C(C(=O)OCC(C)C)C1c1ccccc1[N+](=O)[O-] (centres unmarked) [Nisoldipine]",
    "Fibrin % cell toxicity": "1%"
  },
  {
    "MOLECULE": "C=CCN1CC[C@]23c4c5ccc(O)c4O[C@H]2C(=O)CC[C@@]3(O)[C@H]1C5 [Naloxone Hydrochloride]",
    "Fibrin % cell toxicity": "0%"
  },
  {
    "MOLECULE": "CN(C)CCCN1c2ccccc2CCc2ccccc21 [Imipramine]",
    "Fibrin % cell toxicity": "0%"
  },
  {
    "MOLECULE": "CN[C@H]1CC[C@@H](c2ccc(Cl)c(Cl)c2)c2ccccc21 [Sertraline]",
    "Fibrin % cell toxicity": "1%"
  },
  {
    "MOLECULE": "CN1CCC(=C2c3ccccc3C=Cc3ccccc32)CC1 [Cyproheptadine]",
    "Fibrin % cell toxicity": "1%"
  }
]

// input: 3 molecules below; output: Fibrin % cell toxicity for each
1. Cc1cc2c(s1)Nc1ccccc1N=C2N1CCN(C)CC1 [Olanzapine]
2. CC(CCc1ccccc1)NCC(O)c1ccc(O)c(C(N)=O)c1 (centres unmarked) [Labetalol]
3. CC1=C(/C=C/C(C)=C/C=C/C(C)=C\C(=O)O)C(C)(C)CCC1 [Isotretinoin]

Ans.
1. 1%
2. 1%
3. 13%

* * *

Tested on: primary rat microglia
COND: rat
I'd appreciate it if you could supply Fibrin % cell toxicity values for the items below.
Give bare numbers, in %.

For every record below, what is its Fibrin % cell toxicity?
1. CC(C)(C)NC[C@H](O)COc1ccccc1C1CCCC1
2. CN(C)c1ccc(C(=C2C=CC(=[N+](C)C)C=C2)c2ccc(N(C)C)cc2)cc1

Ans.
1: 1; 2: 38

// for each molecule below, give its Fibrin % cell toxicity
1. CNCC[C@H](Oc1cccc2ccccc12)c1cccs1
2. S=P(N1CC1)(N1CC1)N1CC1
3. FC(F)(F)C(Cl)Br (centres unmarked)
4. COc1cc(C(=O)NS(=O)(=O)c2ccccc2C)ccc1Cc1cn(C)c2ccc(NC(=O)OC3CCCC3)cc12

Ans.
1. 0
2. 1
3. 1
4. 0

Could you report Fibrin % cell toxicity for every entry in the following list?
1. COc1ccc2c(c1)c(CC(=O)O)c(C)n2C(=O)c1ccc(Cl)cc1
2. C[n+]1ccccc1/C=N/O

Ans.
1. 0
2. 1

* * *

Kindly supply the reported LPS % cell toxicity values for the records listed here.
Tested on: primary rat microglia
COND: rat
Number plus unit, in that order.

Examples with their reported LPS % cell toxicity follow.
[
  {
    "MOLECULE": "N[C@@H](Cc1ccc(O)cc1)C(=O)O [Tyrosine]",
    "STUDY TARGET": "primary rat microglia",
    "MEASUREMENT": "1%"
  },
  {
    "MOLECULE": "CN(C)CCCN1c2ccccc2Sc2ccc(C(F)(F)F)cc21 [Triflupromazine]",
    "STUDY TARGET": "primary rat microglia",
    "MEASUREMENT": "1%"
  },
  {
    "MOLECULE": "CCOc1ccc2nc(S(N)(=O)=O)sc2c1 [Ethoxzolamide]",
    "STUDY TARGET": "primary rat microglia",
    "MEASUREMENT": "1%"
  },
  {
    "MOLECULE": "Oc1ccc2c3c1O[C@H]1[C@@H](O)CC[C@@]4(O)[C@@H](C2)N(CC2CCC2)CC[C@]314 [Nalbuphine]",
    "STUDY TARGET": "primary rat microglia",
    "MEASUREMENT": "0%"
  }
]

The record that follows has no LPS % cell toxicity shown yet.
Qu. API: value(readout=LPS % cell toxicity, system=primary rat microglia) for record CCN(CC)C(=O)N1CCN(C)CC1 [Diethylcarbamazine]
Ans. 0%

* * *

Test system: fibrin-induced microglia activation
MEASUREMENT DESCRIPTION: Image-based assay of fibrin-induced microglia activation (HTS and dose response)
Format: cell-based, rat
COND: Rattus norvegicus, Microglia, read-out: Fibrin % inhibition
Where a name gives a salt, the structure may show the parent alone.
PROPERTY MEASURED: inhibition at 10 µM (%)
One number for each entry, in %.

[
  {
    "MOLECULE": "O=C(CCCN1CCC(O)(c2ccc(Cl)cc2)CC1)c1ccc(F)cc1",
    "STUDY TARGET": "fibrin-induced microglia activation",
    "UNIT ABBREVIATION": "%",
    "inhibition at 10 µM": -22
  },
  {
    "MOLECULE": "CCCCCCCCCCCCCCCC(=O)NCCO",
    "STUDY TARGET": "fibrin-induced microglia activation",
    "UNIT ABBREVIATION": "%",
    "inhibition at 10 µM": -40
  },
  {
    "MOLECULE": "CC(C)NC[C@@H](O)COc1cccc2ccccc12 [Dexpropranolol Hydrochloride]",
    "STUDY TARGET": "fibrin-induced microglia activation",
    "UNIT ABBREVIATION": "%",
    "inhibition at 10 µM": -21
  },
  {
    "MOLECULE": "CC[C@H](C)C(=O)O[C@H]1C[C@@H](C)C=C2C=C[C@H](C)[C@H](CC[C@@H]3C[C@@H](O)CC(=O)O3)[C@H]21",
    "STUDY TARGET": "fibrin-induced microglia activation",
    "UNIT ABBREVIATION": "%",
    "inhibition at 10 µM": 106
  },
  {
    "MOLECULE": "N=C(N)NCCN1CCCCCCC1",
    "STUDY TARGET": "fibrin-induced microglia activation",
    "UNIT ABBREVIATION": "%",
    "inhibition at 10 µM": -44
  },
  {
    "MOLECULE": "O=C(O)CC(O)(CC(=O)O)C(=O)O",
    "STUDY TARGET": "fibrin-induced microglia activation",
    "UNIT ABBREVIATION": "%",
    "inhibition at 10 µM": -36
  },
  {
    "MOLECULE": "CCN(CC)CCCC(C)Nc1ccnc2cc(Cl)ccc12 (centres unmarked)",
    "STUDY TARGET": "fibrin-induced microglia activation",
    "UNIT ABBREVIATION": "%",
    "inhibition at 10 µM": 2
  }
]

Then there is this molecule:
Qu. Which inhibition at 10 µM is reported for this molecule? CC1=C(/C=C/C(C)=C/C=C/C(C)=C/C=C/C=C(C)/C=C/C=C(C)/C=C/C2=C(C)CCCC2(C)C)C(C)(C)CCC1
Ans. -15
